System: DLD-1
assay details: NCI tumour cell line growth inhibition, 48 h
Activity calls are given as the source filed them. No stated cut-off is given here; in the data, active = GI50 up to about 1.1 µM and inactive = higher.
Quick list: GI50 per entry.

compound=N/N=C(\Cc1ccccc1)NN=C(N)N result="> 100 µM (inactive)"

Query: I am curious: what GI50 value has been reported for O=C(NC1CCCCC1)NC12CC3CC(CC(F)(C3)C1)C2 ?
Result: > 100 µM (inactive)

Query: What does the data say about its GI50? Entry: CC1COS(=O)O1 (stereo unspecified)
Result: > 100 µM (inactive)

Query: Could you tell me which GI50 is on file for COC(=O)C(C(=O)C(=O)Nc1nc2ccc([N+](=O)[O-])cc2s1)c1nc2ccc(Cl)cc2nc1O (stereo unspecified) ?
Result: > 100 µM (inactive)

Query: Consider the compound CO/C(=N\N=Cc1ccccc1)c1ccncc1 and give its measured GI50.
Result: > 100 µM (inactive)

Query: Requested read-out: GI50. Entry: Nc1nc(SCc2ccccc2[N+](=O)[O-])c2[nH]cnc2n1
Result: > 100 µM (inactive)

Query: May I ask what GI50 has been recorded for O=C(c1nc2ccc([N+](=O)[O-])cc2nc1O)C(O)c1ccc2c(c1)OCO2 (stereo unspecified) ?
Result: > 100 µM (inactive)

Query: Give the measured GI50 of Cc1ccccc1NC(=O)CSc1nnc(Cc2ccccc2)o1 .
Result: > 100 µM (inactive)

Query: Reported GI50, compound O=C(N/C(=C\c1ccc(Oc2ccc(Cl)c(Cl)c2)cc1)c1nc2ccccc2[nH]1)c1ccccc1 : ____
Result: 17.7 µM (inactive)

Query: Request the reported GI50 associated with c1ccc2c(c1)nnn2CNc1ccc(N2CCCCC2)cc1
Result: > 100 µM (inactive)
